SYSTEM NAME: MDR1 (P-gp) (Homo sapiens (Human), UniProt P08183)
PROTOCOL TEXT: MDCK assay P-gp (MDCK-MDR1 monolayer permeability)
Format: in vitro ADME
MEASUREMENT PARAMETERS: MDCK-MDR1, pH 7.4, Papp (b-a) divided by Papp (a-b), read-out: efflux ratio PEBA/PEAB
Quick rule for you: efflux ratio under 0.7 gets MET, anything else gets NOT MET.

A selection of reference data follows.
# MOLECULE SMILES, CLASSIFICATION
measured = [
    ("CNC(=O)[C@@H]1CN(Cc2cnc(Oc3ccc(F)cc3F)nc2)CCO1", "NOT MET"),
    ("CNC(=O)[C@@H]1CN(Cc2cnc(Oc3ccc(F)cc3)nc2)CCO1", "MET"),
    ("CNC(=O)[C@@H]1CN(Cc2cnc(Oc3ccc(Cl)cc3)nc2)CCO1", "MET"),
]

Identify whether the molecule `CNC(=O)[C@@H]1CN(Cc2cnc(Oc3ccc(F)cc3C)nc2)CCO1` records efflux ratio below 0.7.
NOT MET

Identify whether the molecule `CNC(=O)[C@@H]1CN(Cc2cnc(Oc3ccc(Cl)cc3F)nc2)CCO1` records efflux ratio below 0.7.
NOT MET

Identify whether the molecule `CNC(=O)[C@@H]1CN(Cc2cnc(Oc3ccc(C)cc3)nc2)CCO1` records efflux ratio below 0.7.
MET

Identify whether the molecule `CNC(=O)[C@@H]1CN(Cc2cnc(Oc3ccccc3Cl)nc2)CCO1` records efflux ratio below 0.7.
MET
